test: cytotoxicity in HPDE-C7 cells, cell-based, fluorescence, HTS (AID 430); details: HPDE-C7 pancreatic duct cells viability, at 10 µM;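 further: cells exposed to compound for 48 hours before viability readout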
In all, about 63,000 compounds went through this assay and about 1,100 (1.7%) were called active. No stated cut-off is given here; in the data, active means cytotoxicity above about 50%; inactive means the rest. For the sample, actives were picked, then their nearest neighbours and some compounds at random. Measured potencies and affinities stand elsewhere.
Classes used: active, inactive

molecule | label
COc1cc2nc(NC(=O)c3ccccc3)[nH]c(=O)c2cc1OC | inactive
Cc1nc(Nc2nc(-c3ccccc3)cc(=O)[nH]2)nc2ccccc12 | active
N#CC1=C(N)NC(SCC(=O)O)=C(C#N)C12CCCC2 | inactive
Cn1cccc1C(=O)OCc1cc(Cl)cc2c1OCOC2 | inactive
CCSC1=C(C#N)C2(CCCC2)C(C#N)=C(N)N1 | inactive
CCc1c(C)nc(Nc2nc(C)c3cc(OC)ccc3n2)[nH]c1=O | active
CC1(C)CC(=O)C2=C(C1)NC(SCC(=O)Nc1ccccc1)=C(C#N)C21CCCCC1 | inactive
CC1(N2CCCCC2)CC2(O)C(=[N+]1[O-])CCC/C2=N\O (centres undefined) | inactive
Clc1ccccc1CSc1ncccn1 | inactive
